- EXPERIMENT DESCRIPTION: Ivosidenib plasma PK after multiple oral doses (dose escalation)
- Format: in vivo, human
- RECORDED CONDITIONS: human, plasma, oral, 600 mg, glioma, 600 mg QD, cycle 2 day 1; median; read-out: Tmax
QUANTITY NAME: Tmax

- N#Cc1ccnc(N2C(=O)CC[C@H]2C(=O)N(c2cncc(F)c2)[C@H](C(=O)NC2CC(F)(F)C2)c2ccccc2Cl)c1: 2 h
